Measured values drawn from patent US8420640B2 for this set.

target: alpha-synuclein (Homo sapiens, UniProt P37840); assay: alpha-synuclein aggregation inhibition (procedure similar to the ThT assay); format: biochemical; details: inhibition of alpha-synuclein aggregation; read-out: A-syn (IC50/μM)
attribute measured: IC50 (µM)
Reply numerically in µM, unit not repeated.

CN(c1ccccc1)c1cc(N2CCN(C(=O)c3ccccc3)CC2)ccc1[N+](=O)[O-] ... 5
O=C(O)c1cccc(-c2ccc([N+](=O)[O-])c(Nc3ccccc3)c2)c1 [drawing 149] ... 10
O=C(c1ccccc1)N1CCN(c2ccc([N+](=O)[O-])c(Nc3ccccc3)c2)CC1 ... 6.34
CN1CCN(c2ccc([N+](=O)[O-])c(NCc3ccccc3)c2)CC1 [drawing 103] ... 11.6
O=C(c1ccccc1)N1CCN(c2ccc([N+](=O)[O-])c(NCc3ccccc3)c2)CC1 ... 51

Here is another compound to look at.
Let me check: "CN(C)c1cc(N2CCN(C(=O)c3ccccc3)CC2)ccc1[N+](=O)[O-]" , system alpha-synuclein (Homo sapiens, UniProt P37840), measured IC50 is 4

====

biological target: Aβ40 (Homo sapiens, UniProt P05067); construct: Compounds Showing Activity Observed in a ThT Functional Aβ 1-40 Aggregation Assay; test: ThT functional Aβ 1-40 aggregation assay; assay type: biochemical; settings: 20 μM Aβ, 20 mM Tris pH 7.4, 150 mM NaCl, 1% DMSO, 37° C.
Sequence (P05067 672-711 limits assumed): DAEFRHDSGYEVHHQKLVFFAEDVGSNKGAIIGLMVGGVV
attribute measured: log10(IC50) (log10 of the value in µM)
Scale: log10; quantity: IC50; unit before log: µM

Worked examples, 5 molecules total:
O=C(c1ccccc1)N1CCN(c2ccc([N+](=O)[O-])cc2NCc2ccccc2)CC1 ... 1.26
NC(=O)c1ccc(N2CCN(C(=O)c3ccccc3)CC2)cc1NCc1ccccc1 ... 2.42
O=C(c1ccccc1)N1CCN(c2ccc([N+](=O)[O-])c(Nc3ccccc3)c2)CC1 ... -0.07
CCc1ccc(C(=O)N2CCN(c3ccc([N+](=O)[O-])c(N4CCOCC4)c3)CC2)cc1 ... 0.43
O=C(c1ccccc1)N1CCN(c2ccc([N+](=O)[O-])cc2Nc2ccccc2)CC1 ... 1.96

"O=C(O)c1ccc(-c2ccc([N+](=O)[O-])c(NCc3ccccc3)c2)cc1" yielded log10(IC50) of 2.26

"O=C(Nc1ccccc1)c1cccc(-c2ccc([N+](=O)[O-])c(NCc3ccccc3)c2)c1" yielded log10(IC50) of 3.76

"O=C(Nc1cc([N+](=O)[O-])ccc1N1CCN(C(=O)c2ccccc2)CC1)c1ccccc1" yielded log10(IC50) of 3.02

"O=C(Nc1ccccc1)c1ccccc1-c1ccc([N+](=O)[O-])c(NCc2ccccc2)c1" yielded log10(IC50) of 2.18

====

target: Aβ40 (Homo sapiens); construct: Compounds Showing Activity Observed in a ThT Functional Aβ 1-40 Aggregation Assay; experiment: ThT functional Aβ 1-40 aggregation assay; type: biochemical; details: 20 μM Aβ, 20 mM Tris pH 7.4, 150 mM NaCl, 1% DMSO, 37° C.
attribute measured: log10 IC50 (log10 of the value in µM)
Scale: log10; quantity: IC50; unit before log: µM

"CC(=O)Nc1cc([N+](=O)[O-])ccc1N1CCN(C(=O)c2ccccc2)CC1" yielded log10 IC50 of 2.02

O=C(O)c1cccc(-c2ccc([N+](=O)[O-])c(Nc3ccccc3)c2)c1 [drawing 149] yielded log10 IC50 of 0.97

====

biological target: Aβ40 (Homo sapiens, UniProt P05067); construct: Compounds Showing Activity Observed in a ThT Functional Aβ 1-40 Aggregation Assay; assay: ThT functional Aβ 1-40 aggregation assay; format: biochemical; conditions: 20 μM Aβ, 20 mM Tris pH 7.4, 150 mM NaCl, 1% DMSO, 37° C.
Attribute: log10 IC50
Scale: log10; quantity: IC50; unit before log: µM

Worked examples, 4 compounds total:
O=C(c1ccccc1F)N1CCN(c2ccc([N+](=O)[O-])c(NCc3ccco3)c2)CC1 ... 0.32
O=C(Nc1ccccc1)C1CCN(c2ccc([N+](=O)[O-])c(NCc3ccccc3)c2)CC1 ... 2.74
O=[N+]([O-])c1ccc(N2CCNCC2)cc1Nc1ccccc1 ... 0.95
CN(C)c1ccc([N+](=O)[O-])c(Nc2ccccc2)c1 ... 1.59

Here is another compound to look at.
"CN(C)C(=O)c1ccc(N2CCN(C(=O)c3ccccc3)CC2)cc1NCc1ccccc1" yielded log10 IC50 of 1.92

====

Attribute: log10(IC50)
target: Aβ40 (Homo sapiens); construct: Compounds Showing Activity Observed in a ThT Functional Aβ 1-40 Aggregation Assay; assay: ThT functional Aβ 1-40 aggregation assay; assay type: biochemical; settings: 20 μM Aβ, 20 mM Tris pH 7.4, 150 mM NaCl, 1% DMSO, 37° C.
Scale: log10; quantity: IC50; unit before log: µM

O=C(Nc1cc(N2CCN(C(=O)c3ccccc3)CC2)ccc1[N+](=O)[O-])c1ccccc1 ... 2.25

"CC(=O)N1CCN(c2ccc([N+](=O)[O-])c(N3CCc4ccccc4C3)c2)CC1" yielded log10(IC50) of 0.61

"O=C(NCc1ccccc1)c1ccccc1-c1ccc([N+](=O)[O-])c(NCc2ccccc2)c1" yielded log10(IC50) of 2.80

"O=C(O)C1CCN(c2ccc([N+](=O)[O-])c(NCc3ccccc3)c2)CC1" yielded log10(IC50) of 1.36

"COc1ccc(N2CCN(C(=O)c3ccccc3)CC2)cc1Nc1ccccc1" yielded log10(IC50) of 2.38

"CCNC(=O)c1ccc(N2CCN(C(=O)c3ccccc3)CC2)cc1NCc1ccccc1" yielded log10(IC50) of 1.82

"CN(C)c1cc(N2CCN(C(=O)c3ccccc3)CC2)ccc1[N+](=O)[O-]" yielded log10(IC50) of 1.40

"CN1CCN(c2ccc([N+](=O)[O-])c(Nc3ccccc3)c2)CC1" yielded log10(IC50) of 1.37

====

molecular target: Aβ40 (Homo sapiens); construct: Compounds Showing Activity Observed in a ThT Functional Aβ 1-40 Aggregation Assay; test: ThT functional Aβ 1-40 aggregation assay; type: biochemical; settings: 20 μM Aβ, 20 mM Tris pH 7.4, 150 mM NaCl, 1% DMSO, 37° C.
Attribute: IC50
Reply numerically in µM, unit not repeated.

Worked examples, 3 compounds total:
O=C(c1ccccc1)N1CCN(c2cccc(Nc3ccccc3)c2)CC1 ... 539
Nc1ccc(N2CCN(C(=O)c3ccccc3)CC2)cc1Nc1ccccc1 ... 1.9
O=[N+]([O-])c1ccc(N2CCOCC2)cc1Nc1ccccc1 ... 23

"CNc1ccc(N2CCN(C(=O)c3ccccc3)CC2)cc1N(C)c1ccccc1" yielded IC50 of 7.8

"Nc1cccc(N2CCN(C(=O)c3ccccc3)CC2)c1" yielded IC50 of 428

"CN(c1ccccc1)c1cc(N2CCN(C(=O)c3ccccc3)CC2)ccc1[N+](=O)[O-]" yielded IC50 of 9.64

====

biological target: Aβ40 (Homo sapiens); construct: Compounds Showing Activity Observed in a ThT Functional Aβ 1-40 Aggregation Assay; assay: ThT functional Aβ 1-40 aggregation assay; type: biochemical; details: potency with respect to the compound of Example 7, 1=potency of that compound
One threshold, 0.09, splits the recorded Ratio values: lower ones are y, equal or higher ones are n.

Illustrative cases are given below, each with its answer.
O=C(c1ccccc1)N1CCN(c2ccc(NCCO)c(Nc3ccccc3)c2)CC1 ... n
CN(C)C(=O)c1ccc(N2CCN(C(=O)c3ccccc3)CC2)cc1NCc1ccccc1 ... n
O=[N+]([O-])c1ccc(N2CCNCC2)cc1Nc1ccccc1 ... n
CN1CCN(c2ccc([N+](=O)[O-])c(Nc3ccccc3)c2)CC1 ... n

Threshold test, Ratio < 0.09: "CC(=O)Nc1ccc(N2CCN(C(=O)c3ccccc3)CC2)cc1Nc1ccccc1" n

Threshold test, Ratio < 0.09: "O=C(Nc1ccccc1)c1ccc(-c2ccc([N+](=O)[O-])c(NCc3ccccc3)c2)cc1" y

Threshold test, Ratio < 0.09: "O=C(Nc1cc(N2CCN(C(=O)c3ccccc3)CC2)ccc1[N+](=O)[O-])c1ccccc1" y

Threshold test, Ratio < 0.09: CN(C)c1cc([N+](=O)[O-])ccc1N1CCN(C(=O)c2ccccc2)CC1 [drawing 150] n

Threshold test, Ratio < 0.09: "O=C(O)c1ccc(N2CCN(C(=O)c3ccccc3)CC2)cc1NCc1ccccc1" y

Threshold test, Ratio < 0.09: "CN(c1ccccc1)c1cc(N2CCN(C(=O)c3ccccc3)CC2)ccc1N" n

====

Attribute: IC50
target: Aβ40 (Homo sapiens); construct: Compounds Showing Activity Observed in a ThT Functional Aβ 1-40 Aggregation Assay; experiment: ThT functional Aβ 1-40 aggregation assay; type: biochemical; conditions: 20 μM Aβ, 20 mM Tris pH 7.4, 150 mM NaCl, 1% DMSO, 37° C.
Reply numerically in µM, unit not repeated.

Worked examples, 3 compounds total:
CN(C)c1ccc(N2CCN(C(=O)c3ccccc3)CC2)cc1Nc1ccccc1 [drawing 157] ... 3.5
CC(=O)Nc1cc(N2CCN(C(=O)c3ccccc3)CC2)ccc1[N+](=O)[O-] ... 44
O=C(NCc1ccccc1)c1cccc(-c2ccc([N+](=O)[O-])c(NCc3ccccc3)c2)c1 ... 14900

Here is another compound to look at.
"CN(C)C(=O)N1CCN(c2ccc([N+](=O)[O-])c(Nc3ccccc3)c2)CC1" yielded IC50 of 8.4
